The following compounds are listed with their measured GI50 values.
- Target Of Assay: Her2 Exon 20 INSYVMA Ba/F3 (Homo sapiens, UniProt P04626, DUP772-775, cells depend on it)
- Sequence (P04626 with tags, fused parts or gaps DUP772-775): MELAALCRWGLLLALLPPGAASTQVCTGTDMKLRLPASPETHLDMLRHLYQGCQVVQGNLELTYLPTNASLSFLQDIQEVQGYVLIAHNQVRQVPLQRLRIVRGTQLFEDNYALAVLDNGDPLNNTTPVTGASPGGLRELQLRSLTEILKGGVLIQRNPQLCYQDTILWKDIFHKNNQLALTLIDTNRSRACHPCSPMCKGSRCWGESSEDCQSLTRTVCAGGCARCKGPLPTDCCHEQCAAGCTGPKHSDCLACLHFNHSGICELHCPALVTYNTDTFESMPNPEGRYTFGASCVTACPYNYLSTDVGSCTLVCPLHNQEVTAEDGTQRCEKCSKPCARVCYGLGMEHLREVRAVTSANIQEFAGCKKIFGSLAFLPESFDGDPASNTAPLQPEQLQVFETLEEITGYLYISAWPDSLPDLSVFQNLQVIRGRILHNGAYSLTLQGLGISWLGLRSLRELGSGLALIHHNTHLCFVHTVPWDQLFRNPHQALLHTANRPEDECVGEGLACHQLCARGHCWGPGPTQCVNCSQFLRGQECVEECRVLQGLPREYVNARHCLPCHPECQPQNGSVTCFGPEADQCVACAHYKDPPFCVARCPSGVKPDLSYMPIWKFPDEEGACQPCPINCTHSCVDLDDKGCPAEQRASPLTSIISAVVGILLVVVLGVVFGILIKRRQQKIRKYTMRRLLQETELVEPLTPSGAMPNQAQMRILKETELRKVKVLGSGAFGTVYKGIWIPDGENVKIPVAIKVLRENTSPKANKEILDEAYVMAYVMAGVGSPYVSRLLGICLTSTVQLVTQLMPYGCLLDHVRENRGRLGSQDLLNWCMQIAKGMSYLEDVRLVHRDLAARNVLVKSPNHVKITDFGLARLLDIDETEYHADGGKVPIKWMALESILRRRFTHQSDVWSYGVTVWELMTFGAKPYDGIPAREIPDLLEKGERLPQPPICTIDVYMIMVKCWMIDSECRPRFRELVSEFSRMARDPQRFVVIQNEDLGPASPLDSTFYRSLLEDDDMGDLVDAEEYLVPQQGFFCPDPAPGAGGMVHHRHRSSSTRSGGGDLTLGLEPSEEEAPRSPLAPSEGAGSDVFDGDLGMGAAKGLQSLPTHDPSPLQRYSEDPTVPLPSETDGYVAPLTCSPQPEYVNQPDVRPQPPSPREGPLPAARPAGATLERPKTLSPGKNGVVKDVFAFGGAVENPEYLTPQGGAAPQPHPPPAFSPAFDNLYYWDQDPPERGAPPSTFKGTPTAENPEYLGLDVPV
- Method Notes: Her2 Exon 20 INSYVMA Ba/F3 CellTiter-Glo
- Format: cell-based
- Cond: CellTiter-Glo, 72 h, read-out: Her2 Exon 20 INSYVMA Ba/F3 CTG IC50

>>> df
                                   compound                           target_of_assay    recorded_value
0  C=CC(=O)Nc1cc(-c2c(-c3cccc(C(=O)NC4CCCCC4)c3)[nH]c3nccc(Cl)c23)ccc1C  Her2 Exon 20 INSYVMA Ba/F3 (Homo sapiens, UniProt P04626, DUP772-775, cells depend on it)  1000 to 10000 nM
1  C=CC(=O)N1CCOc2ccc(-c3c(-c4ccnc(N5CCN(C)CC5)c4)[nH]c4nccc(Cl)c34)cc21 [Example 98, 2,2,2-trifluoroacetate]  Her2 Exon 20 INSYVMA Ba/F3 (Homo sapiens, UniProt P04626, DUP772-775, cells depend on it)     100 to 500 nM
2  C=CC(=O)N1CCc2ccc(-c3c(-c4ccc(N5CCN(C)CC5)cc4)[nH]c4nccc(Cl)c34)cc21  Her2 Exon 20 INSYVMA Ba/F3 (Homo sapiens, UniProt P04626, DUP772-775, cells depend on it)     100 to 500 nM

Which GI50 value is on record for `C=CC(=O)N1CCCc2ccc(-c3c(-c4ccc(N5CCN(C(C)C)CC5)cc4)[nH]c4nccc(Cl)c34)cc21` ?
500 to 1000 nM

Further, for `C=CC(=O)N1CCCc2ccc(-c3c(-c4cccc(OCCN5CCCC5)c4)[nH]c4nccc(Cl)c34)cc21` ?
1000 to 10000 nM

Further, for `C=CC(=O)Nc1cc(-c2c(-c3ccc(N(C)CCN(C)C)cc3)[nH]c3ncc(C(=O)OC(C)C)cc23)cc(F)c1C` ?
100 to 500 nM

* * *

- Target Of Assay: EGFR T790ML858R (Homo sapiens, UniProt P00533, L858R/T790M)
- Sequence (P00533 25-1210 T790M/L858R): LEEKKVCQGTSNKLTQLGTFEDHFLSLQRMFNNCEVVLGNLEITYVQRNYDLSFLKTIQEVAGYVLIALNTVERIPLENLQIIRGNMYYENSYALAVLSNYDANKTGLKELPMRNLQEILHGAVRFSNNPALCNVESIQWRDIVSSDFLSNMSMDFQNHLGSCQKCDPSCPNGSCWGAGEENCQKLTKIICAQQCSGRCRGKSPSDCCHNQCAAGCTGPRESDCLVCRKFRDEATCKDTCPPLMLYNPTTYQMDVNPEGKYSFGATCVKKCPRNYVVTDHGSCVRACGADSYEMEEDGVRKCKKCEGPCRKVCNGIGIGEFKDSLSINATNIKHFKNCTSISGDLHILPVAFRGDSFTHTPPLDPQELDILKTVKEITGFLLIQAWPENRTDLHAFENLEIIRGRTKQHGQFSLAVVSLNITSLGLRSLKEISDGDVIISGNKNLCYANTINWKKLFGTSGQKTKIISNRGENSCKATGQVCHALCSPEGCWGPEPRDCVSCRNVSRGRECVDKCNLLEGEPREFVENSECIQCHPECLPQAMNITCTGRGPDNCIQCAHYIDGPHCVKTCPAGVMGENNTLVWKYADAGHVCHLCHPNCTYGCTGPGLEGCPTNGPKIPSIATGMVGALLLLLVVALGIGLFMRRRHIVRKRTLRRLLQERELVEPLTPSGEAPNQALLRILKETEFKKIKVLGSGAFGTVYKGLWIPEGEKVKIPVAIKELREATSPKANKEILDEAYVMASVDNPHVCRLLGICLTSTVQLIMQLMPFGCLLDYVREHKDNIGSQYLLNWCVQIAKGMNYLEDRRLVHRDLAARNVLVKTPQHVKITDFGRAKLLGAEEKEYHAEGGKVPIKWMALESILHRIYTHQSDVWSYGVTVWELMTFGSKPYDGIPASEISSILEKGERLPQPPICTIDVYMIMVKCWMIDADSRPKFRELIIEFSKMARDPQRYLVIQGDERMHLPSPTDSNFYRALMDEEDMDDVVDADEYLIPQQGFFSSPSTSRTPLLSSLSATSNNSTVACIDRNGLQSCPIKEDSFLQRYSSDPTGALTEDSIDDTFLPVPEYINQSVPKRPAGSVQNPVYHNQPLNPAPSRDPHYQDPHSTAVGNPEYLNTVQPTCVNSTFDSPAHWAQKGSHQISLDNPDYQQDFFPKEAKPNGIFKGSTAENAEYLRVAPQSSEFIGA
- Method Notes: EGFR T790ML858R Lance assay
pIC50: −log10 of the molar value.
The following compounds are listed with their measured pIC50 values.

                                   compound  recorded_value
0  C=CC(=O)Nc1cc(-c2c(-c3ccc(C4CCN(C)CC4)cc3)[nH]c3nccc(OCC)c23)ccc1C [Example 147, 2,2,2-trifluoroacetate]          ≥ 7.00
1  C=CC(=O)Nc1cc(-c2c(-c3ccc(N4CCN(C)CC4)cc3)[nH]c3ncc(C(=O)NCCc4ccc(F)cc4)cc23)ccc1C          ≥ 7.00

Lab note: next compound to report on.
Which pIC50 value is on record for `C=CC(=O)Nc1cc(-c2c(-c3ccc(C4CCN(C)CC4)cc3)[nH]c3nccc(Cl)c23)ccc1C` ?
≥ 7.00

* * *

Reported IC50 values, EGFR wt (Homo sapiens, UniProt P00533).

Guide cases for IC50, answers given:
>>> df
                                   molecule                         target_of_assay  reported_metric  recorded_value
0  C=CC(=O)Nc1cc(-c2c(-c3ccc(N4CCN(C)CC4)cc3)[nH]c3ncc(C#N)cc23)ccc1C [Example 97, 2,2,2-trifluoroacetate]  EGFR wt (Homo sapiens, UniProt P00533)             IC50        ≤ 100 nM
1  C=CC(=O)Nc1cc(-c2c(-c3ccc(N4CCN(C)CC4)nc3)[nH]c3ncc(C(=O)OC(C)C)cc23)ccc1C  EGFR wt (Homo sapiens, UniProt P00533)             IC50        ≤ 100 nM
2  C=CC(=O)Nc1cc(-c2c(-c3ccc(N4CCN(C)CC4)cc3)[nH]c3ncc(C(=O)NCc4nncn4C)cc23)ccc1C  EGFR wt (Homo sapiens, UniProt P00533)             IC50        ≤ 100 nM
3  C=CC(=O)Nc1cc(-c2c(-c3ccc(CN4CCOCC4)cc3)[nH]c3nccc(Cl)c23)ccc1C  EGFR wt (Homo sapiens, UniProt P00533)             IC50        ≤ 100 nM
4  C=CC(=O)Nc1cc(-c2c(-c3cccc(CN4CCOCC4)c3)[nH]c3nccc(Cl)c23)ccc1C  EGFR wt (Homo sapiens, UniProt P00533)             IC50   100 to 500 nM

Which IC50 value is on record for `C=CC(=O)Nc1cc(-c2c(-c3ccc(N4CCN(C)CC4)cc3)[nH]c3ncc(C(=O)NCc4cccnc4)cc23)ccc1C` ?
≤ 100 nM

Further, for `C=CC(=O)Nc1cc(-c2c(-c3cccc(C(=O)NCCCN4CCCC4)c3)[nH]c3nccc(Cl)c23)ccc1C` ?
≤ 100 nM

Further, for C=CC(=O)NCc1cccc(-c2c(-c3ccc(N4CCN(C)CC4)cc3)[nH]c3ncc(C(=O)OC(C)C)cc23)c1 [Example 203, 2,2,2-trifluoroacetate] ?
100 to 500 nM

Further, for `C=CC(=O)N1CCCc2ccc(-c3c(-c4ccc(CN5CCN(C)CC5)nc4)[nH]c4nccc(Cl)c34)cc21` ?
≤ 100 nM

Further, for `C=CC(=O)Nc1cc(-c2c(-c3ccc(N(C)CCN(C)C)cc3)[nH]c3nccc(Cl)c23)ccc1C` ?
≤ 100 nM

Further, for `C=CC(=O)N1CCCc2ccc(-c3c(-c4cccc(CN5CCN(C)CC5)c4)[nH]c4nccc(Cl)c34)cc21` ?
≤ 100 nM

Further, for C=CC(=O)Nc1cc(-c2c(-c3ccc(N4CCN(C)CC4)cc3)[nH]c3ncc(CC(=O)OC(C)C)cc23)ccc1C [Example 190, 2,2,2-trifluoroacetate] ?
≤ 100 nM

Further, for `C=CC(=O)Nc1cc(-c2c(-c3ccc(N4CCN(C)CC4)cc3)[nH]c3ncc(C(=O)OC4COC4)cc23)ccc1C` ?
≤ 100 nM

Further, for C=CC(=O)Nc1cc(-c2c(-c3ccc(N4CCN(C)CC4)cc3)[nH]c3ncc(C(=O)NCc4ccccc4)cc23)ccc1C [Example 118, 2,2,2-trifluoroacetate] ?
≤ 100 nM

Further, for C/C=C/C(=O)Nc1cc(-c2c(-c3ccc(N4CCN(C)CC4)cc3)[nH]c3nccc(Cl)c23)ccc1C [Example 142, 2,2,2-trifluoroacetate] ?
≤ 100 nM

Further, for `C=CC(=O)Nc1cc(-c2c(-c3cccc(CN4CCN(C)CC4)c3)[nH]c3nccc(OC)c23)ccc1C` ?
≤ 100 nM

Further, for C=CC(=O)Nc1cc(-c2c(-c3ccc(N(C)CCN(C)C)cc3)[nH]c3ncc(C(=O)OC(C)C)cc23)ccc1C [Example 154, 2,2,2-trifluoroacetate] ?
≤ 100 nM

These measurements were taken from patent US20220370440A1.
